What selectivity ratio at 2 min was measured for each of the following?
target: OCT2 (Homo sapiens, UniProt O15244); test: Stereoselective uptake into OCT2 (wild-type)-overexpressing HEK293 cells; settings: human, Stereoselectivity Vmax, OCT2; ratio between enantiomers, given as for (R) or for 1
Sequence (O15244 whole entry S270A): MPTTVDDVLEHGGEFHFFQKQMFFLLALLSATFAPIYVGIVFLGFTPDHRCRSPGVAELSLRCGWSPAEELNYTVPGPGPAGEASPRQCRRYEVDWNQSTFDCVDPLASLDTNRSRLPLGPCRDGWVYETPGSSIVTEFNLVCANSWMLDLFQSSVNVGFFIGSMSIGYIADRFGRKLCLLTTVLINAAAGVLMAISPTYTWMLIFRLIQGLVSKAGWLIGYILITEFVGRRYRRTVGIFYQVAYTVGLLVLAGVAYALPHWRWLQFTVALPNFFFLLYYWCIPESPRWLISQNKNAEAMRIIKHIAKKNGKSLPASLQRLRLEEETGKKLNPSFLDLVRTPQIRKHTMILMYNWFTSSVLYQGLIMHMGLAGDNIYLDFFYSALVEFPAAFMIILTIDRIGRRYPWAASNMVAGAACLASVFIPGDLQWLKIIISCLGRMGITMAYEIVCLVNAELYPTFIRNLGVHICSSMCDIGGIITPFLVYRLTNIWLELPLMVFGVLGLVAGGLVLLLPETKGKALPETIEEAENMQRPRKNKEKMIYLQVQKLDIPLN

Record excerpt, results attached:
CNC[C@@H](O)c1cccc(O)c1 [(S)-Phenylephrine] : 2.04
CNC[C@H](O)c1ccc(O)cc1 [(R)-Synephrine] : 2.05
CNC[C@H](O)c1cccc(O)c1 [(R)-Phenylephrine] : 2.04

What measured selectivity ratio at 2 min goes with CNC[C@@H](O)c1ccc(O)cc1 [(S)-Synephrine] ? 2.05

###

target: OCT3 (Homo sapiens, UniProt O75751); test: Stereoselective uptake into OCT3-overexpressing HEK293 cells; conditions: OCT3; ratio between enantiomers, given as for (R) or for 1;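 also: intracellular accumulation in HEK293 cells measured by chiral HPLC-MS/MS after a 2 min substrate exposure at 37 °C, uptake normalized to total protein (bicinchoninic acid assay)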
Sequence (O75751 whole entry): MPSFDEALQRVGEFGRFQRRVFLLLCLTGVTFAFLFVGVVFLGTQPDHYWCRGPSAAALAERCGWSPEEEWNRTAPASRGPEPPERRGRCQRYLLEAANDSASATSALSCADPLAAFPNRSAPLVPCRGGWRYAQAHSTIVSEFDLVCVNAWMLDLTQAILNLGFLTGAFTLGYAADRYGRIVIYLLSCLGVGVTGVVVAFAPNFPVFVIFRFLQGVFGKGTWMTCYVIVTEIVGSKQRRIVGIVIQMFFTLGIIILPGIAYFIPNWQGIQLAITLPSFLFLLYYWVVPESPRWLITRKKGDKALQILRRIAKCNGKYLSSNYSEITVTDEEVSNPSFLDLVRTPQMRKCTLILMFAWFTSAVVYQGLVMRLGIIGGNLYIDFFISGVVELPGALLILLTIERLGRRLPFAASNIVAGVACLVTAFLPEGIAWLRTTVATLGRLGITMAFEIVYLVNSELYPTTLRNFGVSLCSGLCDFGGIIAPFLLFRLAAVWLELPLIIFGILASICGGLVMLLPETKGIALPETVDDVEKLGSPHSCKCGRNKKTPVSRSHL
What Stereoselectivity Vmax was measured for each of the following?
Answers are plain numbers, in fold.

Record excerpt, results attached:
NC[C@@H](O)c1ccccc1 [(S)-Bisnorephedrine] : 1.13
CNCC(O)c1ccc(O)c(OC)c1 (single isomer, unassigned) [Metanephrine-2, Metanephrine] : 1.19

Now for a further molecule.
What measured Stereoselectivity Vmax goes with CNC[C@H](O)c1cccc(O)c1 [(R)-Phenylephrine] ? 3.33
